assayedTarget: T1, human VEGF C (human, UniProt P49767 103-227, limits assumed)
T1 construct: also called hVEGFC; hVEGF C
T1 sequence (looked up): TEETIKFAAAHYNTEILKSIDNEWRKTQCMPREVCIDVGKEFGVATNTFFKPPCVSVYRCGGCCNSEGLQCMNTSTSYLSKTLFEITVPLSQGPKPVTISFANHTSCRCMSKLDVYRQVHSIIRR
measurementDescription: BLI (ForteBio), bivalent binding, 30 C
Entries and their Kd
outcomeMeasure: Kd (pM)

>>> valueobserved("LA63G12 anti-VEGF C VHH antibody (VHH, The prokaryotic product was purified on Ni Sepharose) VHH: QLQLVESGGGLVQPGGSLRLSCAASGSSFSPYAMGWYRQAPGKQRELVAATTSGGSTLYADSVKGRFTISRDNAKNTVYLQMNSLKPEDTAVYYCYMHWRGSDPENYWGQGTQVTVSS")
656
>>> valueobserved("LA49G9 anti-VEGF C VHH antibody (VHH, The prokaryotic product was purified on Ni Sepharose) VHH: QLQLVESGGGLVQPGGSLRLSCAASGSMFSMYAMGWYRQAPGKQRELVAATTSGGSTLYADSVKGRFTISRDNAENTVYLQMNSLKPEDTAVYYCYTYWRGSDPENYWGRGTQVTVSS")
613
